Entry source: ChEMBL document CHEMBL1201862

Target: ATP-dependent molecular chaperone HSP82 (Candida albicans (strain WO-1) (Yeast), UniProt C4YTQ8)
Sequence (C4YTQ8 whole entry): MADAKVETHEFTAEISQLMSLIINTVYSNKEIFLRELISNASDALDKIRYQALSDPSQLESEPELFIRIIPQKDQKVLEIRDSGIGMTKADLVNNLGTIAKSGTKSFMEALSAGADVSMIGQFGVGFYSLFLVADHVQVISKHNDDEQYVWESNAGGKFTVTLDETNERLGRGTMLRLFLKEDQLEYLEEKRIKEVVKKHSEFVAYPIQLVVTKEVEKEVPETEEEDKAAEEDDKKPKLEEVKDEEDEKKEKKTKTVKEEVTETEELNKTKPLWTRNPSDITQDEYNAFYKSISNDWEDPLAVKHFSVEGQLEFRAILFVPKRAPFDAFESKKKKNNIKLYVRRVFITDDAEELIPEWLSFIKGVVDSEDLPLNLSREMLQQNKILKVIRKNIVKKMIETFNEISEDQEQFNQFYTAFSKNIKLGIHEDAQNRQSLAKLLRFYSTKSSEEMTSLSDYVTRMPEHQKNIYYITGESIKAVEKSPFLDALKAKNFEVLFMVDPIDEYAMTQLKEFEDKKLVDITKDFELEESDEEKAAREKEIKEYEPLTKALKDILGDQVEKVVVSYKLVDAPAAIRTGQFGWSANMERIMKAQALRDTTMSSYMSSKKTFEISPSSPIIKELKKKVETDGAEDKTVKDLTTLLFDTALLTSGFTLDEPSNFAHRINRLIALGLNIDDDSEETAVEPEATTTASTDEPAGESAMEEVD
Test: loss of DOC-induced GRE-beta-galactosidase reporter signal, dose response, Hsp90 inhibitor project, S. cerevisiae, luminescence (AID 2400);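 further: beta-galactosidase luminescence from glucocorticoid response element reporter as proxy for Hsp90 function; inhibitor potency where signal loss means Hsp90 inhibition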
Assay type: functional, cell-based
Activity calls are given as the source filed them. No stated cut-off is given here; in the data, actives have a measured EC50 and inactives only a lower limit.
I would appreciate it if you answered using one of these outcomes: active, inactive

Task: Fill in: this test's call for CCc1nnc(NC(=O)CSc2ncc(-c3ccccc3)n2C)s1 is ___
Output: active

Task: Fill in: this test's call for Cc1ccc(C)c(NC(S)=NNC(=O)c2csc(C(C)C)c2)c1 is ___
Output: inactive

Task: Fill in: this test's call for Cc1ccccc1/C=C1\SC(=S)N(/N=C/c2cc([N+](=O)[O-])ccc2O)C1=O is ___
Output: active

Task: Fill in: this test's call for CCCC(=O)NC(c1ccc(C)cc1)c1ccc2cccnc2c1O (centres undefined) is ___
Output: inactive
